# Test system: CEM cells HIV-1 protection, formazan growth assay
# Assay Name: NCI AIDS Antiviral Assay;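 active = compounds giving half or more protection of infected cells from virus-caused growth loss, again on retest; inactive = the rest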
Where a SMILES comes first, the peptide text is derived from it. [ ]: non-standard residue; d: D form. The star is where a group is joined. ξ: configuration not given here. Dnp = O=[N+]([O-])c1ccc(*)c([N+](=O)[O-])c1; Bz = O=C(c1ccccc1)*; ξC = NC(CS)C(=O)O
Answer with one of the outcomes class 1 for active, class 0 for inactive

Returns: the outcome recorded for CCN1C[C@]2(C)CC[C@H](OC)C34C5C[C@@H]6[C@@H](OC)C[C@@](OC)(C5[C@H]6OCc5ccccc5)C(C13)[C@H](OC(C)=O)[C@@H]42 (stereo partly drawn) in this assay.
class 0

Returns: the outcome recorded for COC(=O)C(CSc1ccc([N+](=O)[O-])cc1[N+](=O)[O-])NC(=O)CNC(=O)c1ccccc1 (stereo not drawn) (Bz-Gly-[ξC](Dnp)-OMe) in this assay.
class 0

Returns: the outcome recorded for C=C1OC(=O)[C@]2([C@@H](/C=C/C)C=CC(=O)[C@H]2O)[C@@H]1O in this assay.
class 0

Returns: the outcome recorded for COc1ccc2nc3cc(Cl)ccc3c(Sc3ccc([N+](=O)[O-])cc3)c2c1 in this assay.
class 0

Returns: the outcome recorded for O=S1(=O)c2ccccc2NC(=S)CC1c1ccccc1 (stereo not drawn) in this assay.
class 0

Returns: the outcome recorded for CC1(C)[C@H]2CC[C@]1(C)[C@H](OC(=O)NNC(=O)O[C@@H]1C[C@@H]3CC[C@@]1(C)C3(C)C)C2 in this assay.
class 0

Returns: the outcome recorded for OC(C/C(=N\N=C(/CC(O)(C(F)(F)F)C(F)(F)F)c1ccccc1)c1ccccc1)(C(F)(F)F)C(F)(F)F in this assay.
class 0

Returns: the outcome recorded for CCOP(=O)(OCC)/C(C#N)=C/c1cccn1C in this assay.
class 1
